Biological target: α1d (rat receptor expressed in mouse fibroblasts) (Rattus norvegicus, UniProt P23944)
Construct: expressed in transfected cells; host or cells: mouse fibroblasts
Sequence (P23944 1-561): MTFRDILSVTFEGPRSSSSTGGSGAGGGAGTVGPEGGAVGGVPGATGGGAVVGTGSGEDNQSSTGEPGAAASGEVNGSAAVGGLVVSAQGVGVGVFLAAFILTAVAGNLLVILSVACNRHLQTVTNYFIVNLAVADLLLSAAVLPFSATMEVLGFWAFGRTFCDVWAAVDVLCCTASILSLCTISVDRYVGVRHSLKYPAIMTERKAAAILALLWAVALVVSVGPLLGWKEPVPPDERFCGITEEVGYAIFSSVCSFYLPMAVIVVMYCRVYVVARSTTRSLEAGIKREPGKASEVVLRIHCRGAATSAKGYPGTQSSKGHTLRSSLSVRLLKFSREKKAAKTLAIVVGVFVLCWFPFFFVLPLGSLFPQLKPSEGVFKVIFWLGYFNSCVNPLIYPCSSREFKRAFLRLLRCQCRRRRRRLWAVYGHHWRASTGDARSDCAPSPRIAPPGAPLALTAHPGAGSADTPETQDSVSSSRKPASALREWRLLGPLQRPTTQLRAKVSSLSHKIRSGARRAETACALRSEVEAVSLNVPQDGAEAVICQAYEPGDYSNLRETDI
Test: Radioligand binding, [3H]-prazosin, α1d
Conditions: rat receptor expressed in mouse fibroblasts, [3H]-prazosin; read-out: Radioligand Binding Ki α1d (Rat)
valueType: pKi
Please keep in mind that pKi is minus log10 of the molar concentration; only the number is needed.

Use these answered entries as a reference point.
{"compound": "O=C(Nc1cccc2c1CCCC2c1c[nH]cn1)N1CCCCC1 (stereo not shown) [Example 114]", "valueType": "pKi", "measuredValue": 5.25}
{"compound": "CCS(=O)(=O)Nc1cccc2c1CCCCC2c1c[nH]cn1.O=C(O)/C=C\\C(=O)O (stereo not shown) [Example 40, Maleate]", "valueType": "pKi", "measuredValue": 5.00}
{"compound": "CCN(C(=O)Nc1cccc2c1CCCC2c1c[nH]cn1)C(C)C (stereo not shown) [Example 118]", "valueType": "pKi", "measuredValue": 6.04}

Query: pKi; subject: CS(=O)(=O)Nc1cc(F)cc2c1OCCC2c1c[nH]cn1.O=C(O)/C=C\C(=O)O (stereo not shown) [Example 90, Maleate]
5.00

// returns reported pKi for input O=S(=O)(Cc1ccccc1)Nc1cccc2c1CCCC2c1cnc[nH]1 (stereo not shown) [Example 67]
5.43

Quick one: pKi for CCCN(CCC)C(=O)Nc1cccc2c1CCCC2c1c[nH]cn1 (stereo not shown) [Example 112] ?
5.00

Given the compound CCOC(=O)Nc1cccc2c1CCCC2c1c[nH]cn1 (stereo not shown) [Example 120] , what is its reported pKi?
5.54

Request the reported pKi associated with CCS(=O)(=O)Nc1cccc(C(=C(C)C)c2c[nH]cn2)c1 [Example 94]
6.76

// lookup pKi for CCS(=O)(=O)Nc1cccc2c1OCCC2c1c[nH]cn1 (single isomer, unassigned; (+)) [Example 95]
5.00

====

We begin with a simple list: items and their reported melting point.

Recorded results for 8 compounds are shown here.
{"compound": "CCS(=O)(=O)Nc1ccc(C)c(Cc2c[nH]cn2)c1", "melting point": "194 to 196 °C"}
{"compound": "CS(=O)(=O)Nc1ccc(F)c(Cc2c[nH]cn2)c1.O=C(O)/C=C\\C(=O)O", "melting point": "146 to 147 °C"}
{"compound": "Cl.Cn1cncc1C1CCCc2c1ccc(O)c2NS(C)(=O)=O (stereo not drawn)", "melting point": "260 °C"}
{"compound": "CS(=O)(=O)Nc1cccc2c1CCCC2c1c[nH]cn1.Cl (stereo not drawn)", "melting point": "113 to 114 °C"}
{"compound": "CCS(=O)(=O)Nc1cccc(C(=C(C)C)c2c[nH]cn2)c1", "melting point": "152 to 155 °C"}
{"compound": "CS(=O)(=O)Nc1cccc2c1CCC[C@@H]2c1c[nH]cn1", "melting point": "118 to 123 °C"}
{"compound": "CCS(=O)(=O)Nc1cccc2c1COC2c1c[nH]cn1.O=C(O)/C=C\\C(=O)O (stereo not drawn)", "melting point": "95 to 98 °C"}
{"compound": "CCS(=O)(=O)Nc1cc(C)cc(Cc2c[nH]cn2)c1C", "melting point": "167 to 169 °C"}

Now for a further compound.
Field request: melting point | item: CCCn1cnc(C2CCCc3c2ccc(O)c3NS(C)(=O)=O)c1.Cl (stereo not drawn)
128 to 133 °C

====

Entries and their measured melting point follow.

Here is how some compounds turned out for melting point.
{"compound": "CS(=O)(=O)Nc1cccc2c1OCCC2c1c[nH]cn1.O=C(O)/C=C\\C(=O)O (single isomer, unassigned; (+)) [Example 93]", "measuredValue": "205 to 208 °C"}
{"compound": "CCS(=O)(=O)Nc1cccc2c1CCCC2c1c[nH]cn1.O=C(O)/C=C\\C(=O)O (single isomer, unassigned; (-)) [Example 34]", "measuredValue": "129 to 130 °C"}
{"compound": "Cc1ccc(NS(C)(=O)=O)c2c1C(c1c[nH]cn1)CCC2.O=C(O)/C=C\\C(=O)O (stereo not drawn)", "measuredValue": "192 to 195 °C"}
{"compound": "CS(=O)(=O)Nc1cccc2c1CCCCC2c1c[nH]cn1.O=C(O)/C=C\\C(=O)O (stereo not drawn)", "measuredValue": "162 to 164 °C"}
{"compound": "CC(c1cccc(NS(C)(=O)=O)c1)c1c[nH]cn1.Cl (stereo not drawn)", "measuredValue": "195 to 196 °C"}
{"compound": "CCS(=O)(=O)Nc1cccc(Cc2c[nH]cn2)c1O.O=C(O)/C=C\\C(=O)O", "measuredValue": "155 to 157 °C"}
{"compound": "Cl.Cn1cnc(C2CCCc3c2ccc(O)c3NS(C)(=O)=O)c1 (stereo not drawn)", "measuredValue": "256 to 258 °C"}
{"compound": "CCS(=O)(=O)Nc1cccc(Cc2c[nH]cn2)c1Cl", "measuredValue": "182 to 184 °C"}

Now for another entry.
What value of melting point has been reported for the following compound? CCS(=O)(=O)Nc1cc(Br)cc(Cc2c[nH]cn2)c1C
202 to 204 °C

====

melting point values, listed per item

{"compound": "O=C(O)/C=C\\C(=O)O.O=S(=O)(CC(F)(F)F)Nc1cccc2c1CCCC2c1c[nH]cn1 (centres unmarked)", "measuredValue": "138 to 140 °C"}
{"compound": "CC(c1cccc(NS(C)(=O)=O)c1)c1c[nH]cn1.O=C(O)/C=C\\C(=O)O (centres unmarked)", "measuredValue": "135 to 136 °C"}
{"compound": "CCS(=O)(=O)Nc1cccc(C(C)c2c[nH]cn2)c1.O=C(O)/C=C\\C(=O)O (centres unmarked)", "measuredValue": "114 to 119 °C"}
{"compound": "CS(=O)(=O)Nc1ccc(F)c2c1CCCC2c1c[nH]cn1.O=C(O)/C=C\\C(=O)O (centres unmarked)", "measuredValue": "182 to 186 °C"}
{"compound": "CC(=O)Nc1cccc2c1CCCC2c1c[nH]cn1.O=C(O)/C=C\\C(=O)O (centres unmarked)", "measuredValue": "159 to 160 °C"}
{"compound": "CCS(=O)(=O)Nc1cccc2c1SCCC2c1c[nH]cn1.O=C(O)/C=C\\C(=O)O (centres unmarked)", "measuredValue": "248 to 251 °C"}
{"compound": "Cc1c(Cc2c[nH]cn2)cccc1NS(C)(=O)=O.O=C(O)/C=C\\C(=O)O", "measuredValue": "143 to 144 °C"}
{"compound": "CS(=O)(=O)Nc1cccc2c1OCCC2c1c[nH]cn1.O=C(O)/C=C\\C(=O)O (centres unmarked) [Example 19]", "measuredValue": "172 to 174 °C"}
{"compound": "CCS(=O)(=O)Nc1cc(Br)cc(Cc2c[nH]cn2)c1", "measuredValue": "194 to 196 °C"}
{"compound": "O=C(O)/C=C\\C(=O)O.O=S(=O)(CC(F)(F)F)Nc1cccc(Cc2c[nH]cn2)c1", "measuredValue": "161 to 162 °C"}

Query (compound): CCS(=O)(=O)Nc1cccc2c1CCCC2c1c[nH]cn1.O=C(O)/C=C\C(=O)O (centres unmarked) [Example 12] ; field requested: melting point
129 to 132 °C

====

# Mean MAP ED20 annotations
test system: anesthetized dogs; test: Mean arterial pressure (MAP) in anesthetized dogs; format: in vivo, dog; conditions: iv dose causing a maximum increase in MAP of 20 mm Hg, anesthetized female Beagle dogs
Give the number; nmol/kg is assumed, so skip it.

{"compound": "C=C(c1cccc(NS(=O)(=O)CC)c1)c1c[nH]cn1.O=C(O)/C=C\\C(=O)O", "assayTarget": "anesthetized dogs", "Mean MAP ED20 / nmol/kg": 633}

Identify the measured Mean MAP ED20 of C=C(c1cccc(NS(C)(=O)=O)c1)c1c[nH]cn1 for anesthetized dogs.
652.06

Lab note: need Mean MAP ED20 for CCS(=O)(=O)Nc1cc(Cl)cc2c1CCCC2c1c[nH]cn1 (centres unmarked) on anesthetized dogs, anyone have it?
47.7

Sourced from patent US20030073850A1
